- System: Jurkat cells
- method_description: Tacrolimus dose response of FKBP13-AcGFP-mCherry constructs stably transduced into Jurkat cells, GFP MFI by flow cytometry
- Assay type: cell-based
- assay_conditions: tacrolimus; FIG. 38
FC listing for selected molecules.
Note: the reply should be a number with no unit written.

FKBP-289: FKBP13 DRD-AcGFP construct of Table 10 (protein, Description of sequence: Construct Name: FKBP-289; Mutation(s): Q72R Q84E A117W V85R K120I K135Y) HCPIKSRKGDVLHMHYTGKLEDGTEFDSSLPRNQPFVFSLGTGERIKGWDQGLLGMCEGEKRKLVIPSELGYGERGWPPIIPGGATLVFEVELLYIER
73.38

Input FKBP-290: FKBP13 DRD-AcGFP construct of Table 10 (protein, Description of sequence: Construct Name: FKBP-290; Mutation(s): Q72R Q84E A117W V85R K120I E130F) HCPIKSRKGDVLHMHYTGKLEDGTEFDSSLPRNQPFVFSLGTGERIKGWDQGLLGMCEGEKRKLVIPSELGYGERGWPPIIPGGATLVFFVELLKIER , output reported FC.
92.89

Give the reported value of FC for this record: FKBP-292: FKBP13 DRD-AcGFP construct of Table 10 (protein, Description of sequence: Construct Name: FKBP-292; Mutation(s): Q72R Q84E A117W V85R K135Q) HCPIKSRKGDVLHMHYTGKLEDGTEFDSSLPRNQPFVFSLGTGERIKGWDQGLLGMCEGEKRKLVIPSELGYGERGWPPKIPGGATLVFEVELLQIER
50.68
